Data provenance: paper PMC9328677

Catalogue of pKd readings, one per entry.
# System: stoichiometric mixture of full-length Drosophila melanogaster H2A-H2B and H3-H4 (octamer-mix) (Drosophila melanogaster, UniProt P84051 1-124; P02283 1-123; P02299 1-136; P84040 1-103)
# Procedure text: ITC
pKd: −log10 of the molar value.
Property label: pKd

>>> result("GLDEDNDNVGQPNEYDLNDSFLDDEEEDYEPTDEDSDWEPGKE (domain or fragment) [truncated APLF^AD construct corresponding to residues 449 to 490 (APLF^AD-Δ)]")
7.05
>>> result("LDEDNDNVGQPNEADLNDSALDDEEEDAEPTDEDSDAEPGKE (domain or fragment) [SUMO-APLF^AD truncated QA mutant (QA-Δ, residues 449 to 490)]")
5.91
>>> result("SUMO-APLF^AD quadruple anchor mutant Y462A/F468A/Y476A/W485A (QA) (domain or fragment) DEDNDNVGQPNEADLNDSALDDEEEDAEPTDEDSDAEPGKEDEEKEDVEELLKEAKRFMKRK")
6.10
>>> result("APLF^AD double anchor mutant Y462A/F468A (DA-34) (domain or fragment) DEDNDNVGQPNEADLNDSALDDEEEDYEPTDEDSDWEPGKEDEEKEDVEELLKEAKRFMKRK")
6.17
>>> result("APLF^AD double anchor mutant Y476A/W485A (DA-AB) (domain or fragment) DEDNDNVGQPNEYDLNDSFLDDEEEDAEPTDEDSDAEPGKEDEEKEDVEELLKEAKRFMKRK")
6.50
